The origin of these recorded values is patent US20260078196A1.

A collection of binders and their measured EC50
# target.desc: T1, human MUC16 on cells (human, UniProt Q8WXI7 1-14507)
# T1 construct: whole, on cells; also called huMUC16; MUC16 on OVCAR3 and SNU216 cells
# test.details: flow cytometry (MFI GeoMean) on SNU216 cells, nM is the unit of the x axis Log10[Ab] (nM)
Value expressed in nM; do not type the unit.

binder="D57 (antibody, V domains shown, Anti-MUC16 mAb; also called MUC16-D57) VH: EVQLLESGGGLVTPGGSLRLSCTASGFTFSDYYLSWVRQAPGKGLEWMGGIIPIFGTANYAQKFQGRVTITADESTSTAYMELSSLRSEDTAVYYCARGGPHYDFWSGYTPGQHGGAFDIWGQGTMVTVSS VL: EIVLTQSPGTLSLSPGERATLSCRASQSVSSSYLAWYQQKPGQAPRLLIYGASSRATGIPDRFSGSGSGTDFTLTISRLEPEDFAVYYCQQRSNWRNTFGQGTRLEIK" endpoint=EC50 output_unit=nM test_value=1.24
binder="3A5 (antibody, human IgG1, kappa, V domains shown, Benchmark anti-MUC16 antibody; printed both as h3A5 and 3A5; also called h3A5; benchmarker 3A5) VH: EVQLVESGGGLVQPGGSLRLSCAASGYSITNDYAWNWVRQAPGKGLEWVGYISYSGYTTYNPSIKSRFTISRDTSKNTLYLQMNSLRAEDTAVYYCARWTSGLDYWGQGTLVTVSS VL: DIQMTQSPSSLSASVGDRVTITCKASDLIHNWLAWYQQKPGKAPKLLIYGATSLETGVPSRFSGSGSGTDFTLTISSLQPEDFATYYCQQYWTTPFTFGQGTKVEIKR" endpoint=EC50 output_unit=nM test_value=0.571

Pending binder:
Sample D100 (antibody, V domains shown, Anti-MUC16 mAb; also called MUC16-D100) VH: QVQLVQSGAEVKKPGSSVKVSCKASGGTFSRYHAISWVRQAPGQGLEWMGGIIPILGTANYAQKFQGRVTITADESTSTAYMELSSLRSEDTAVYYCASGTTAARYYYYYYYMDVWGKGTTVTVSS VL: NIQMTQSPSSLSASVGDRVTITCQASQDISNYLNWFHQKPGKAPNLLIYDASNLETGVPSRFSGSGSGTDFTFTISSLQPEDIGTYYCQQYDNLPLTFGGGTKVDIK ; EC50 observed: 0.12
